- test-system: Alpha-1B adrenergic receptor (Homo sapiens, UniProt P35368)
- Sequence (P35368 whole entry): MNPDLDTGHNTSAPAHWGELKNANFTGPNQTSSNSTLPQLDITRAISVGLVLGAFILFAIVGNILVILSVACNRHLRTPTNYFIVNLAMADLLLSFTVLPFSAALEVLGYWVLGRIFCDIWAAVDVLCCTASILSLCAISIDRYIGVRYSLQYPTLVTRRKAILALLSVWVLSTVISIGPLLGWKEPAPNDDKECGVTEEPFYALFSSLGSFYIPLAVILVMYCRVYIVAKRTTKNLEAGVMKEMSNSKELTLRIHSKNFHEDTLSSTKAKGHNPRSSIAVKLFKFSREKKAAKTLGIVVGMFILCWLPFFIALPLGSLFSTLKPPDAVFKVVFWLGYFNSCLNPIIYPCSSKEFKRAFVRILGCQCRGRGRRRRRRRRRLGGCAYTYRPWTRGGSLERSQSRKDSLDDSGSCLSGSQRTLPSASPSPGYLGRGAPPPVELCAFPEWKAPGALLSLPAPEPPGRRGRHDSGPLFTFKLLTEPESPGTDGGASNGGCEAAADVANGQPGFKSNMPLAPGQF
- experiment-summary: Displacement of [125I]BE-2254 from human adrenergic Alpha-1B receptor expressed in HEK293 cells
- Type: cell-based

compound-structure-string | Ki [nM]
COc1ccccc1N1CCN(CCCCCN2C(=O)CC(c3ccccc3)CC2=O)CC1 | 97.7
O=C1CC(c2ccccc2)CC(=O)N1CCCN1CCN(c2ccccc2Cl)CC1 | 112
COc1ccccc1N1CCN(CCCCN2C(=O)CC3(CCc4ccccc43)CC2=O)CC1 | 72.4

====

- test-system: Alpha-1D adrenergic receptor (Homo sapiens, UniProt P25100)
- Sequence (P25100 whole entry): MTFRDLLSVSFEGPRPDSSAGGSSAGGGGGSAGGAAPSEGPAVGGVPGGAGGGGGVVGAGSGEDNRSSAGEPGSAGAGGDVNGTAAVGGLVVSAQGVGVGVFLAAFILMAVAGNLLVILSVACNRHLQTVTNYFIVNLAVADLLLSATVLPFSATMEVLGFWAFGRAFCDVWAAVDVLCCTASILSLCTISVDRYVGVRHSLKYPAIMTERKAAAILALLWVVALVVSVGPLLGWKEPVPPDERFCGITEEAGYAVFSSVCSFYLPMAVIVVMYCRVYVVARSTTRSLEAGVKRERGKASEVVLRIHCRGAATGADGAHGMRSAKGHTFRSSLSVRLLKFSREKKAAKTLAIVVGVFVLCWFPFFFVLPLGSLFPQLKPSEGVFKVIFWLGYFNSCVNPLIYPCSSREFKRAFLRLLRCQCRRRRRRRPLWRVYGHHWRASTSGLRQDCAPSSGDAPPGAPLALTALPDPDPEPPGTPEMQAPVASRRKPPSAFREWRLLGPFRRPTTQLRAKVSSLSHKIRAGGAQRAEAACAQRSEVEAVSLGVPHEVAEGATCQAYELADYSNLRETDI
- experiment-summary: Displacement of [125I]BE-2254 from human adrenergic Alpha-1D receptor expressed in HEK293 cells
- Assay type: cell-based
pKi: −log10 of the molar value.

compound-structure-string | pKi
COc1ccccc1N1CCN(CCN2C(=O)CC(c3ccc(Cl)cc3)CC2=O)CC1 | 6.16
COc1ccccc1N1CCN(CCCN2C(=O)CC(C)(c3ccccc3)CC2=O)CC1 | 7.29
COc1ccccc1N1CCN(CCCN2C(=O)CC(c3ccccc3)CC2=O)CC1 | 7.34
COc1ccccc1N1CCN(CCCN2C(=O)CC(c3ccc([N+](=O)[O-])cc3)CC2=O)CC1 | 7.17
COc1ccccc1N1CCN(CCN2C(=O)CC3(CCc4ccccc43)CC2=O)CC1 | 6.04

====

- test-system: Alpha-1A adrenergic receptor (Homo sapiens, UniProt P35348)
- Sequence (P35348 whole entry): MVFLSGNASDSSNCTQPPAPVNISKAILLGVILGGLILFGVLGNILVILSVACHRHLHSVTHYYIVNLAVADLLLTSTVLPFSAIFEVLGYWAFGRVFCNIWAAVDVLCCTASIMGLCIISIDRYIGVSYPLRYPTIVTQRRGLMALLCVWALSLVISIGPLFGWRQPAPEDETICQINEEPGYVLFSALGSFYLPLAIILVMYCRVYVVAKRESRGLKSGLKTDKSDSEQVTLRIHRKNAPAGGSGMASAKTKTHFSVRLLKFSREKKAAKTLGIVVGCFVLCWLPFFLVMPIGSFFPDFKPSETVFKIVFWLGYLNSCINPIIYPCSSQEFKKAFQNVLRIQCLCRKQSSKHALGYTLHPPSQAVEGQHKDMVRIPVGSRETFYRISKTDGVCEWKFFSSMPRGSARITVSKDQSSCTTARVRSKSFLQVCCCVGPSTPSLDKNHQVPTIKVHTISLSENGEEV
- experiment-summary: Displacement of [125I]BE-2254 from human adrenergic alpha1A receptor expressed in HEK293 cells
- Assay type: cell-based
readout-name: log10 Ki (log10 of the value in µM)

compound-structure-string | test-system | readout-name | measured
COc1ccccc1N1CCN(CCN2C(=O)CC3(CCc4ccccc43)CC2=O)CC1 | Alpha-1A adrenergic receptor (Homo sapiens, UniProt P35348) | log10 Ki | 0.53
COc1ccccc1N1CCN(CCCCN2C(=O)CC(c3ccccc3)CC2=O)CC1 | Alpha-1A adrenergic receptor (Homo sapiens, UniProt P35348) | log10 Ki | -2.74
COc1ccccc1N1CCN(CCN2C(=O)CC(c3ccc(Cl)cc3)CC2=O)CC1 | Alpha-1A adrenergic receptor (Homo sapiens, UniProt P35348) | log10 Ki | 0.23
COc1ccc(Cl)cc1N1CCN(CCCCN2C(=O)CC(c3ccccc3)CC2=O)CC1 | Alpha-1A adrenergic receptor (Homo sapiens, UniProt P35348) | log10 Ki | -1.44
COc1ccccc1N1CCN(CCCCN2C(=O)CC(c3ccc([N+](=O)[O-])cc3)CC2=O)CC1 | Alpha-1A adrenergic receptor (Homo sapiens, UniProt P35348) | log10 Ki | -1.68
COc1ccccc1N1CCN(CCCN2C(=O)CC3(CCc4ccccc43)CC2=O)CC1 | Alpha-1A adrenergic receptor (Homo sapiens, UniProt P35348) | log10 Ki | -1.20
COc1ccccc1N1CCN(CCCN2C(=O)CC(c3ccc(Cl)cc3)CC2=O)CC1 | Alpha-1A adrenergic receptor (Homo sapiens, UniProt P35348) | log10 Ki | -1.55
